Where do these numbers come from? They come from paper PMC6829536.

Target: L98A CaFADS (Corynebacterium ammoniagenes, UniProt Q59263, L98A)
Assay: biochemical
outcome_measure: Ki

{"structure": "Cc1cc2nc3c(=O)[nH]c(=O)nc-3n(C[C@H](O)[C@H](O)[C@H](O)CO)c2cc1C", "experimental_result": "32 µM"}

###

Molecular target: P56W CaFADS (Corynebacterium ammoniagenes, UniProt Q59263, P56W)
Experiment: biochemical
outcome_measure: Ki (µM)

{"structure": "Cc1cc2nc3c(=O)[nH]c(=O)nc-3n(C[C@H](O)[C@H](O)[C@H](O)CO)c2cc1C", "target_under_test": "P56W CaFADS (Corynebacterium ammoniagenes, UniProt Q59263, P56W)", "experimental_result": 6.5}

###

Target: P58W CaFADS (Corynebacterium ammoniagenes, UniProt Q59263, P58W)
Test: biochemical
pKi: −log10 of the molar value.
outcome_measure: pKi

{"structure": "Cc1cc2nc3c(=O)[nH]c(=O)nc-3n(C[C@H](O)[C@H](O)[C@H](O)CO)c2cc1C", "outcome_measure": "pKi", "experimental_result": 4.41}
